- STUDY_CONDITIONS: in 1,2-dichloroethane, 313.15 K
PROPERTY_MEASURED: solubility (mole fraction)

> print(dat)
                                smiles.code           property.measured  recorded.result
1  CC1(C)COP(=O)(Oc2cccc(OP3(=O)OCC(C)(C)CO3)c2)OC1  solubility (mole fraction)           0.0317

====

- STUDY_CONDITIONS: in acetonitrile, 333.15 K
PROPERTY_MEASURED: solubility (mole fraction)

> print(dat)
                                smiles.code           property.measured  recorded.result
1  CC1(C)COP(=O)(Oc2cccc(OP3(=O)OCC(C)(C)CO3)c2)OC1  solubility (mole fraction)           0.0491

====

- STUDY_CONDITIONS: in n-propanol, 303.15 K
PROPERTY_MEASURED: solubility (mole fraction)

> print(dat)
                                smiles.code  recorded.result
1  CC1(C)COP(=O)(Oc2cccc(OP3(=O)OCC(C)(C)CO3)c2)OC1          0.00187

====

- STUDY_CONDITIONS: in acetone, 323.15 K
PROPERTY_MEASURED: solubility (mole fraction)

> print(dat)
                                smiles.code  recorded.result
1  CC1(C)COP(=O)(Oc2cccc(OP3(=O)OCC(C)(C)CO3)c2)OC1           0.0251

====

- STUDY_CONDITIONS: in acetone, 298.15 K
PROPERTY_MEASURED: solubility (mole fraction)

> print(dat)
                                smiles.code  recorded.result
1  CC1(C)COP(=O)(Oc2cccc(OP3(=O)OCC(C)(C)CO3)c2)OC1          0.00796

====

- STUDY_CONDITIONS: in toluene, 313.15 K
PROPERTY_MEASURED: solubility (mole fraction)

> print(dat)
                                smiles.code           property.measured  recorded.result
1  CC1(C)COP(=O)(Oc2cccc(OP3(=O)OCC(C)(C)CO3)c2)OC1  solubility (mole fraction)           0.0004

====

- STUDY_CONDITIONS: in acetonitrile, 298.15 K
PROPERTY_MEASURED: solubility (mole fraction)

> print(dat)
                                smiles.code  recorded.result
1  CC1(C)COP(=O)(Oc2cccc(OP3(=O)OCC(C)(C)CO3)c2)OC1           0.0127

====

- STUDY_CONDITIONS: in toluene, 318.15 K
PROPERTY_MEASURED: solubility (mole fraction)

> print(dat)
                                smiles.code           property.measured  recorded.result
1  CC1(C)COP(=O)(Oc2cccc(OP3(=O)OCC(C)(C)CO3)c2)OC1  solubility (mole fraction)          0.00049

====

- STUDY_CONDITIONS: in acetonitrile, 323.15 K
PROPERTY_MEASURED: solubility (mole fraction)

> print(dat)
                                smiles.code  recorded.result
1  CC1(C)COP(=O)(Oc2cccc(OP3(=O)OCC(C)(C)CO3)c2)OC1           0.0342

====

- STUDY_CONDITIONS: in 1,2-dichloroethane, 308.15 K
PROPERTY_MEASURED: solubility (mole fraction)

> print(dat)
                                smiles.code           property.measured  recorded.result
1  CC1(C)COP(=O)(Oc2cccc(OP3(=O)OCC(C)(C)CO3)c2)OC1  solubility (mole fraction)           0.0273

====

- STUDY_CONDITIONS: in ethyl formate, 293.15 K
PROPERTY_MEASURED: solubility (mole fraction)

> print(dat)
                                smiles.code           property.measured  recorded.result
1  CC1(C)COP(=O)(Oc2cccc(OP3(=O)OCC(C)(C)CO3)c2)OC1  solubility (mole fraction)          0.00422

====

- STUDY_CONDITIONS: in ethanol, 333.15 K
PROPERTY_MEASURED: solubility (mole fraction)

> print(dat)
                                smiles.code           property.measured  recorded.result
1  CC1(C)COP(=O)(Oc2cccc(OP3(=O)OCC(C)(C)CO3)c2)OC1  solubility (mole fraction)           0.0151

====

- STUDY_CONDITIONS: in methanol, 298.15 K
PROPERTY_MEASURED: solubility (mole fraction)

> print(dat)
                                smiles.code           property.measured  recorded.result
1  CC1(C)COP(=O)(Oc2cccc(OP3(=O)OCC(C)(C)CO3)c2)OC1  solubility (mole fraction)          0.00357

====

- STUDY_CONDITIONS: in methyl acetate, 308.15 K
PROPERTY_MEASURED: solubility (mole fraction)

> print(dat)
                                smiles.code  recorded.result
1  CC1(C)COP(=O)(Oc2cccc(OP3(=O)OCC(C)(C)CO3)c2)OC1          0.00422

====

- STUDY_CONDITIONS: in methanol, 313.15 K
PROPERTY_MEASURED: solubility (mole fraction)

> print(dat)
                                smiles.code           property.measured  recorded.result
1  CC1(C)COP(=O)(Oc2cccc(OP3(=O)OCC(C)(C)CO3)c2)OC1  solubility (mole fraction)           0.0129

====

- STUDY_CONDITIONS: in ethyl formate, 298.15 K
PROPERTY_MEASURED: solubility (mole fraction)

> print(dat)
                                smiles.code           property.measured  recorded.result
1  CC1(C)COP(=O)(Oc2cccc(OP3(=O)OCC(C)(C)CO3)c2)OC1  solubility (mole fraction)          0.00508

====

- STUDY_CONDITIONS: in 1,2-dichloroethane, 303.15 K
PROPERTY_MEASURED: solubility (mole fraction)

> print(dat)
                                smiles.code           property.measured  recorded.result
1  CC1(C)COP(=O)(Oc2cccc(OP3(=O)OCC(C)(C)CO3)c2)OC1  solubility (mole fraction)           0.0233

====

- STUDY_CONDITIONS: in n-propanol, 323.15 K
PROPERTY_MEASURED: solubility (mole fraction)

> print(dat)
                                smiles.code  recorded.result
1  CC1(C)COP(=O)(Oc2cccc(OP3(=O)OCC(C)(C)CO3)c2)OC1          0.00658

====

- STUDY_CONDITIONS: in methyl acetate, 323.15 K
PROPERTY_MEASURED: solubility (mole fraction)

> print(dat)
                                smiles.code  recorded.result
1  CC1(C)COP(=O)(Oc2cccc(OP3(=O)OCC(C)(C)CO3)c2)OC1          0.00745

====

- STUDY_CONDITIONS: in methanol, 293.15 K
PROPERTY_MEASURED: solubility (mole fraction)

> print(dat)
                                smiles.code  recorded.result
1  CC1(C)COP(=O)(Oc2cccc(OP3(=O)OCC(C)(C)CO3)c2)OC1           0.0022

====

- STUDY_CONDITIONS: in chloroform, 303.15 K
PROPERTY_MEASURED: solubility (mole fraction)

> print(dat)
                                smiles.code  recorded.result
1  CC1(C)COP(=O)(Oc2cccc(OP3(=O)OCC(C)(C)CO3)c2)OC1           0.0751

====

- STUDY_CONDITIONS: in toluene, 308.15 K
PROPERTY_MEASURED: solubility (mole fraction)

> print(dat)
                                smiles.code  recorded.result
1  CC1(C)COP(=O)(Oc2cccc(OP3(=O)OCC(C)(C)CO3)c2)OC1          0.00032

====

- STUDY_CONDITIONS: in acetone, 318.15 K
PROPERTY_MEASURED: solubility (mole fraction)

> print(dat)
                                smiles.code           property.measured  recorded.result
1  CC1(C)COP(=O)(Oc2cccc(OP3(=O)OCC(C)(C)CO3)c2)OC1  solubility (mole fraction)           0.0201
